Test: Solubility of norketotifen (saturated solutions, HPLC)
Type: physicochemical
Settings: pH 8.6, aqueous buffer, thermodynamic from solid; read-out: solubility of norketotifen in water
measured_metric: solubility

Look up and state reported solubility for O=C1Cc2ccccc2C(=C2CCNCC2)c2ccsc21 [norketotifen]
2100 µg/mL

Source: patent US8765787B2
